Papp values for the molecules below.
test system: P-gp; assay: in vitro; conditions: dog, MDCK-MDR1
measured.endpoint: Papp

INSERT INTO measurements (sample_smiles, measured_endpoint, data_value) VALUES
  ('CCCc1nc(C)c2c(C)nc3scnc3n12', 'Papp', '68 ×10⁻⁶ cm/s'),
  ('Cn1nc(-c2ccccc2Cl)c2c3cc(F)cc(F)c3nnc21', 'Papp', '36 ×10⁻⁶ cm/s'),
  ('CCCc1nc(C)c2c(C)nc3ccc(OC)nc3n12', 'Papp', '33 ×10⁻⁶ cm/s'),
  ('COc1cc(OC)c2nnc3c(c(C4CC4)nn3C)c2c1', 'Papp', '62 ×10⁻⁶ cm/s');

---

experiment: in vivo; conditions: rat, brain/plasma, ip, 2 mg/kg
measured.endpoint: Kp uu at 1 h

INSERT INTO measurements (sample_smiles, measured_endpoint, data_value) VALUES
  ('CCCc1nc(C)c2c(C)nc3ccc(OC)nc3n12', 'Kp uu at 1 h', 3.81);

---

assay: in vivo; details: rat, plasma, ip, 2 mg/kg
measured.endpoint: concentration at 1 h

INSERT INTO assay_data (sample_smiles, data_value) VALUES
  ('CCCc1nc(C)c2c(C)nc3ccc(OC)nc3n12', '72 ng/mL');

---

assay: in vivo; conditions: rat, brain, ip, 2 mg/kg
measured.endpoint: concentration at 1 h

INSERT INTO assay_data (sample_smiles, data_value) VALUES
  ('CCCc1nc(C)c2c(C)nc3ccc(OC)nc3n12', '0.118 µg/mL');

---

test: in vivo; conditions: rat, brain/plasma, ip, 2 mg/kg
measured.endpoint: Kp at 1 h

INSERT INTO assay_data (sample_smiles, measured_endpoint, data_value) VALUES
  ('CCCc1nc(C)c2c(C)nc3ccc(OC)nc3n12', 'Kp at 1 h', 1.67);

---

assay: in vivo; conditions: rat, iv, 2 mg/kg
measured.endpoint: Vd

INSERT INTO assay_data (sample_smiles, data_value) VALUES
  ('CCCc1nc(C)c2c(C)nc3ccc(OC)nc3n12', '2.4 L/kg');

---

assay: in vivo; conditions: rat, po, 2 mg/kg
measured.endpoint: bioavailability (%)

INSERT INTO results (sample_smiles, measured_endpoint, scale_unit, data_value) VALUES
  ('CCCc1nc(C)c2c(C)nc3ccc(OC)nc3n12', 'bioavailability', '%', 19);
